Here, each record is paired with measured Growth of cells data.
test: The compound was tested for the toxicity of mutant+r-LDL, measured by its ability to inhibit the growth of normal human fibroblasts or chinese hamster ovary (CHO) cells, at concentration 0.5 ug/mL; assay type: functional
Just the number, please, no unit attached.

Worked set:
compound: CCCCCCCC/C=C\CCCCCCCCN1CCOCC1
resultNumber: 1
--
compound: CC1=C(/C=C/C(C)=C/C=C/C(C)=C\CN2CCOCC2)C(C)(C)CCC1
resultNumber: 0
--
compound: CCCCCCCC/C=C\CCCCCCCCC(=O)O[C@H]1CC[C@@]2(C)C(=CC[C@H]3[C@@H]4CC[C@H](C(C)C(=O)N5CCOC(CCCCCCCCCCCC)C5)C4CC[C@@H]32)C1 (some centres undefined)
resultNumber: 6

Consider the additional compound presented here.
*Q* If you can, please state the reported Growth of cells value of CCCCCCCC/C=C\CCCCCCCCN1CC(C)OC(C)C1 (centres undefined) .
*A* 0
